measured-on: furin, P09958
Sequence (P09958 whole entry): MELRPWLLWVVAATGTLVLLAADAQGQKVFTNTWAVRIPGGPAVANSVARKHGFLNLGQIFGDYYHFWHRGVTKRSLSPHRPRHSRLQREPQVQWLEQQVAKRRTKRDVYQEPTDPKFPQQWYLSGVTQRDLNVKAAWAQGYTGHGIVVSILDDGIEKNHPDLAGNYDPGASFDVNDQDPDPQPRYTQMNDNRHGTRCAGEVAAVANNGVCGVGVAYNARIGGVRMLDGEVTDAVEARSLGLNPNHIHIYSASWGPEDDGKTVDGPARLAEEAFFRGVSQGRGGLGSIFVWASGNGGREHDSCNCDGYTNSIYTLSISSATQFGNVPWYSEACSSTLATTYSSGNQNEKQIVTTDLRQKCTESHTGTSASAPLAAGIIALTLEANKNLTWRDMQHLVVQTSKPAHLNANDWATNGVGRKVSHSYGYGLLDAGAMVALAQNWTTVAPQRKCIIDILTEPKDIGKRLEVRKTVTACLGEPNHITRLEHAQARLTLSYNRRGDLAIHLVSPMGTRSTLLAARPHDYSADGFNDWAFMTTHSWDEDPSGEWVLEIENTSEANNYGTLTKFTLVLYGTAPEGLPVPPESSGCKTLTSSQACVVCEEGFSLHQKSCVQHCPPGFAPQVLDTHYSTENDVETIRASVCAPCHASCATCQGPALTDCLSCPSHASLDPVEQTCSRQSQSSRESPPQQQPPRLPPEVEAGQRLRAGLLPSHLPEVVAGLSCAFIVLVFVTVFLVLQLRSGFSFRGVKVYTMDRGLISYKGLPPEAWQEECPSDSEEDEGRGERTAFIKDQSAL
protocol: furin cleavage Z-score vs untreated control; higher = more cleavage, active = 3.5 or more, inactive = 1 or less, 8 variable residues between constant flanks;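 also: purified furin at 1:10 enzyme:substrate in 50 mM HEPES pH 7.5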
condition-details: 7.5 min
The list shows a part of the results. No count for the full screen is at hand.
A collection of sequences and their measured furin cleavage Z-score
value-type: furin cleavage Z-score

sequence="CARKMRPARLAGNASASA [FS-1260]" result_value=3.41
sequence="CALEHRRMRRAGNASASA [FS-349]" result_value=11
sequence="CAEKAVERRSAGNASASA [FS-1191]" result_value=0.591
sequence="CAEVQCHRPSAGNASASA [HC2362]" result_value=0.385
sequence="CARPARFLDSAGNASASA [FS-2051]" result_value=0.467
sequence="CAKDSRFFRYAGNASASA [FS-808]" result_value=0.318
sequence="CARLARNVKEAGNASASA [FS-2984]" result_value=4.24
sequence="CAVRNRRKRKAGNASASA [FS-1434]" result_value=8.59
sequence="CALETTMRSPAGNASASA [HC761]" result_value=-0.168
sequence="CALRRRMRRRAGNASASA [FS-1368]" result_value=3.44
sequence="CARCQRDAMCAGNASASA [FS-2651]" result_value=-1.14
sequence="CATAQRHRRYAGNASASA [FS-628]" result_value=8.01
sequence="CARHSRSQGAAGNASASA [FS-2948]" result_value=-0.651
sequence="CAGRSEFKRCAGNASASA [FS-1331]" result_value=-0.855
sequence="CATTPCSGSHAGNASASA [HC1935]" result_value=-1.54
